Tested on: SNU-387
Experiment: Antiproliferative activity against human SNU-387 cells by MTT assay
Format: functional, cell-based
Measurement label: IC50 (µM)
Respond numerically; units are µM and should not be typed.

Q: Given CNC(=O)c1cc(Oc2ccc(NC(=O)Nc3ccc(Cl)c(C(F)(F)F)c3)cc2)ccn1 [SORAFENIB] , state its recorded IC50.
Ans: 259

* * *

Provide the reported pIC50 of each item.
Test system: HepG2
Test: Cytotoxicity against human HepG2 cells incubated for 48 hrs by MTT assay
Assay type: functional, cell-based
Conditions: HepG2, 48 h
In plain terms, pIC50 is the concentration in mol/L turned into minus its base-10 logarithm.

Q: Field request: pIC50 | item: `C#CCNC1=CC(=O)c2c(O)c3c(c(O)c2C1=O)C[C@](C)(O)[C@H](O)C3`
Ans: 5.00

Q: Try COc1cccc2c1C(=O)c1c(O)c3c(c(O)c1C2=O)C[C@@](O)(C(=O)CO)C[C@@H]3O[C@H]1C[C@H](N)[C@@H](O)[C@H](C)O1 [EPIRUBICIN] next.
Ans: 6.02

Q: Repeat with `C[C@]1(O)Cc2c(O)c3c(c(O)c2C[C@H]1O)C(=O)C=C(NCc1ccc(F)cc1)C3=O`
Ans: 4.95

Q: Try this compound too: `COC1=CC(=O)c2c(O)c3c(c(O)c2C1=O)C[C@]1(C)OCO[C@@H]1C3`
Ans: 4.89

Q: Try this compound next: `CCCCSC1=C(SCCCC)C(=O)c2c(O)c3c(c(O)c2C1=O)C[C@@H](O)[C@@](C)(O)C3`
Ans: 5.30

Q: Now consider `C[C@]1(O)Cc2c(O)c3c(c(O)c2C[C@H]1O)C(=O)C1=C(SCCS1)C3=O` .
Ans: 5.70

Q: Another compound to check: CCC(C)SC1=C(SC)C(=O)c2c(O)c3c(c(O)c2C1=O)C[C@](C)(O)[C@H](O)C3 (some centres not stated)
Ans: 5.62

* * *

System: HepG2
Test: Antiproliferative activity against human HepG2 cells by MTT assay
Assay type: functional, cell-based
Measurement label: IC50 (µM)
Numeric only. Scale: µM

Q: Entry under review: `CNC(=O)c1cc(Oc2ccc(NC(=O)Nc3ccc(Cl)c(C(F)(F)F)c3)cc2)ccn1` . Reported IC50?
Ans: 6.4

* * *

Test: Half life in Kunming mouse at 15 to 30 mg/kg measured upto 240 mins
Format: ADME, organism-based
Conditions: in vivo, dose 15-30 mg/kg
Measurement label: half-life (min)
Enter your answer as a number in min; do not include the unit.

Q: Param item = COc1cccc2c1C(=O)c1c(O)c3c(c(O)c1C2=O)C[C@@](O)(C(=O)CO)C[C@@H]3O[C@H]1C[C@H](N)[C@H](O)[C@H](C)O1.Cl [DOXORUBICIN HYDROCHLORIDE] ; retrieve measured half-life.
Ans: 1380

Q: For Cc1cc(O)cc(O)c1OC1C(=O)Oc2c(C)cc(O)c3c2C1c1cc(O)cc(O)c1C3=O (configuration not stated) then?
Ans: 40

* * *

System: PLC-PRF-5
Assay: Cytotoxicity against human PLC-PRF-5 cells by SRB assay
Type: functional, cell-based
Answer each item with its documented IC50.
Write it as a number; the unit nM goes unstated.

Q: # query: IC50 of entry `C[C@@H]1O[C@@H](O[C@H]2CC[C@H](O[C@@]3(C)CC(=O)[C@]4(O)C5=C(C=C[C@]4(O)C3)C(=O)c3c(ccc([C@H]4C[C@H]6O[C@H]7CC(=O)[C@H](C)O[C@@H]7O[C@@H]6[C@@H](C)O4)c3O)C5=O)O[C@H]2C)C=CC1=O`
Ans: 244

Q: Item: `COc1cccc2c1C(=O)c1c(O)c3c(c(O)c1C2=O)C[C@@](O)(C(=O)CO)C[C@@H]3O[C@H]1C[C@H](N)[C@H](O)[C@H](C)O1`
Ans: 1030

* * *

Test system: SMMC-7721
Test: Cytotoxicity against human SMMC-7721 cells assessed as reduction in cell viability by SRB assay
Assay type: functional, cell-based
Measurement label: IC50 (nM)
Answer format: numeric, nM implied, no suffix.

Q: Quick one: IC50 of COC(=O)[C@H](CCCC(C)C)[C@H]1CC[C@H]2[C@@H]3CC[C@H]4CC(=O)C=C[C@]4(C)[C@H]3CC[C@]12C [METHYL SPONGOATE] ?
Ans: 2000

* * *

Please provide measured pIC50 for the entries that follow.
Tested on: HepG2
Assay: Anticancer activity against human HepG2 cells by MTT assay
Type: functional, cell-based
Convention used: pIC50 is expressed as -log10 of the molar concentration.

Q: What does the record list as pIC50 for `CO[C@@]12[C@H](COC(N)=O)C3=C(C(=O)C(C)=C(N)C3=O)N1C[C@@H]1N[C@@H]12` ?
Ans: 6.89

Q: What would you report for `CCCCCC1=C/C(=C\c2[nH]c(-c3ccc[nH]3)cc2OC)N=C1C` ?
Ans: 7.40
